# TARGET SYSTEM: BSA (Bos taurus, UniProt P02769)
# Construct: purchased Millipore Sigma-Aldrich
# Sequence (P02769 25-607): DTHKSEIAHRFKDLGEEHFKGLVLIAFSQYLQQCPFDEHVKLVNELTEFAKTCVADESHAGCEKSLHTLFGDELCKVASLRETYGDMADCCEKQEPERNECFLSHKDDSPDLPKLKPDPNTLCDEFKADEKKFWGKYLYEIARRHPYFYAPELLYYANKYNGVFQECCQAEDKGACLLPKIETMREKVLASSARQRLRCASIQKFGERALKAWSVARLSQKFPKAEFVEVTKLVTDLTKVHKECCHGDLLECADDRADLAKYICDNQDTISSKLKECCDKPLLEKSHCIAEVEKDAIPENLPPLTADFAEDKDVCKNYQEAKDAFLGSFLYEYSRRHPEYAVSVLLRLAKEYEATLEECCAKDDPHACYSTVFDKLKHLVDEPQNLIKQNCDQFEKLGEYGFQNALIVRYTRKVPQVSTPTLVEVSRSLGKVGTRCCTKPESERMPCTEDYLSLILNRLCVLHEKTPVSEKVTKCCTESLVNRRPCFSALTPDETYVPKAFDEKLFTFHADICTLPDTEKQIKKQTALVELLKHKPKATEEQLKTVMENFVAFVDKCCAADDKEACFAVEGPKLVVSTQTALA
# ASSAY PROCEDURE: Far-UV CD secondary structure of BSA (CONTIN-LL deconvolution)
# Format: physicochemical, bovine
# EXPERIMENTAL CONTEXT: 1.0 mg/mL BSA, 55 mM component, 25 °C
PARAMETER MEASURED: Regular Beta Sheet

MOLECULE	OBSERVED MEASUREMENT
CCCCn1cc[n+](C)c1.O=S(=O)([O-])C(F)(F)F [[C4C1Im][CF3SO3]]	0.000
OC[C@H]1O[C@@](CO)(O[C@H]2O[C@H](CO)[C@@H](O)[C@H](O)[C@H]2O)[C@@H](O)[C@@H]1O	0.000
CCn1cc[n+](C)c1.O=S(=O)([O-])C(F)(F)C(F)(F)C(F)(F)C(F)(F)F	0.000
C[N+](C)(C)CCO.C[N+](C)(C)CCO.O=P([O-])(O)O.O=P([O-])(O)O [[N1112(OH)][H2PO4]]	0.080
C[N+](C)(C)CCO.O=S(=O)([O-])C(F)(F)C(F)(F)C(F)(F)C(F)(F)F [[N1112(OH)][C4F9SO3]]	0.000
